src = PubChem BioAssay

Please go through the items and note down their z-score.
- measurement-protocol: CREB reporter modulators without forskolin, primary screen, cell-based, PC12, CRE-LacZ reporter, unstimulated (AID 1145)
- experimental-setup: no forskolin, luminescence, 4.5 h, higher = more signal, called active from +8 up or from −8 down
Give a plain numeric answer without units written out.

Using the record for `COCCOC(=O)N1C(=O)[C@@]2(c3cc(C#CCCO)ccc31)[C@H](C(=O)N1CCc3cc(OC)c(OC)cc3C1)[C@H]1C(=O)O[C@H](c3ccccc3)[C@H](c3ccccc3)N1[C@@H]2c1ccccc1OCCO` , report its z-score.
-0.89

Using the record for `COc1ccc([Si](C)(C)[C@H]2[C@H](CCn3cc([C@H](O)c4ccccc4)nn3)O[C@@]3(C(=O)N(C)c4c(Br)cc(C)cc43)[C@@H]2C)cc1` , report its z-score.
7.95

Using the record for `C=C(/C(=C/C[C@H](OC(=O)c1ccncc1)c1ccccc1OCCO)c1cc(C(=O)OC)ccc1OC)C(C)C` , report its z-score.
6.99

Using the record for `COc1ccc([Si](C)(C)[C@H]2[C@H](CCn3cc([C@H](O)c4ccccc4)nn3)O[C@@]3(C(=O)N(c4ccccc4)c4ccccc43)[C@@H]2C)cc1` , report its z-score.
0.236

Using the record for `CCCC[C@H]1OB(O)C[C@H]2C1=C(COC)C[C@H]1C(=O)C=CC(=O)[C@H]12` , report its z-score.
10.7

Using the record for COc1cc2c(cc1O)C(c1ccc(CN3CCCC3)cc1)N(Cc1ccc([N+](=O)[O-])o1)CC2 (configuration not stated) , report its z-score.
0.299

Using the record for `CCC[C@@H]1C=C(C(=O)OCC)[C@H](c2ccccc2)N1S(=O)(=O)c1ccc(C)cc1` , report its z-score.
-0.527

###

- measurement-protocol: small-molecule binders of probe aLefty1, primary screen, biochemical, small-molecule microarray, 635/667 nm fluorescence (AID 1153);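 further: score merges spot fluorescence with signal-to-noise ratio from the scanned slide images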
- experimental-setup: higher = more signal
param class (str): category from composite z-score; see ranges c1: < 0.03; c2: ≥ 0.03 and < 0.7; c3: ≥ 0.7

Given `C=C(CC1([C@@H](NP(=O)(c2ccccc2)c2ccccc2)[C@H]2C[C@@H]2CCN(C(=O)OCC)S(=O)(=O)c2ccc(C)cc2)CC1)c1ccccc1` , name the class its composite z-score places it in.
c3

Given `COc1ccccc1CN1C(=O)c2ccccc2[C@@H](C(=O)NCCCN(C)C)[C@@H]1c1ccc(CO)cc1` , name the class its composite z-score places it in.
c1

Given `CCOC(=O)C[C@H]1[C@H](OC(=O)Cc2ccc3c(c2)OCO3)[C@@H](NC(=O)c2ccccc2)c2cc(OCCCO)ccc2N1C(=O)Cc1ccc(OC)cc1` , name the class its composite z-score places it in.
c1

Given `NCCCC[C@@H]1NC(=O)[C@H]2C[C@@H](C(=O)NCc3ccc(F)cc3)[C@@H](c3ccc(O)cc3)N2C1=O` , name the class its composite z-score places it in.
c3

Given `CCCC[C@@H]1C[C@H]1[C@@H](NC(=O)Cc1ccccc1)c1ccc(Cl)cc1` , name the class its composite z-score places it in.
c2

Given `COc1ccc(C#Cc2ccc3c(c2)[C@]2(C(=O)N3)[C@H](c3ccc(OCCO)cc3)N3[C@H](c4ccccc4)[C@H](c4ccccc4)OC(=O)[C@H]3[C@@H]2C(=O)O)cc1` , name the class its composite z-score places it in.
c3

Given `COCCOC(=O)N1C(=O)[C@@]2(c3cc(C#CCC(C(=O)OC)C(=O)OC)ccc31)[C@H](C(=O)N1CCCCCCC1)[C@H]1C(=O)O[C@H](c3ccccc3)[C@H](c3ccccc3)N1[C@@H]2c1ccccc1OCCO` , name the class its composite z-score places it in.
c3

Given `CCOC(=O)C1=CC[C@@H](c2ccccc2)N(S(=O)(=O)c2ccc(C)cc2)[C@H]1C#N` , name the class its composite z-score places it in.
c1

Given `COCCOC(=O)N1C(=O)[C@@]2(c3cc(C#Cc4ccc(OC)cc4)ccc31)[C@H](C(=O)N1CCCCCCC1)[C@H]1C(=O)O[C@H](c3ccccc3)[C@H](c3ccccc3)N1[C@@H]2c1ccccc1OCCO` , name the class its composite z-score places it in.
c3

Given COC(=O)C1=CC(CCCO)=CC(c2ccc(CN3CCCC3)cc2)N(Cc2sc3ccccc3c2Cl)C=C1C(=O)OC (configuration not stated) , name the class its composite z-score places it in.
c3

Given `CN(C)C(=O)[C@@]1(CCS(=O)(=O)c2ccccc2)N=C(c2ccc(OCCCO)cc2)O[C@H]1c1ccccc1N=[N+]=[N-]` , name the class its composite z-score places it in.
c1

Given `COc1ccc(CCNC(=O)[C@@]2(Sc3ccc(C)cc3)CC(=O)N(C(C)C)[C@@H]2c2ccc(CO)cc2)cc1` , name the class its composite z-score places it in.
c2

Given `CCCCCCc1nc(-c2ccc(OC)nc2)cc2c1[Si](C(C)C)(C(C)C)OC2` , name the class its composite z-score places it in.
c1

Given `CCOC(=O)C[C@H]1[C@H](OC(=O)c2ccc(C(=O)c3ccccc3)cc2)[C@@H](NC(=O)c2ccc3ccccc3c2)c2cc(OCCCO)ccc2N1C(=O)c1ccc2ccccc2n1` , name the class its composite z-score places it in.
c2

Given `O=C1O[C@H](c2ccccc2)[C@H](c2ccccc2)N2[C@H]1[C@@H](C(=O)NC[C@H](O)c1ccccc1)[C@]1(C(=O)Nc3ccc(C#CCCO)cc31)[C@H]2c1ccccc1OCCO` , name the class its composite z-score places it in.
c2

Given CC(C)N1CC=CC23O[C@@H]4C=CCCOC(=O)C4[C@H]2C(=O)N(CCCCCO)[C@@H]3C1=O (some centres not stated) , name the class its composite z-score places it in.
c1

Given `C=CC[C@]1(C(=O)NCc2ccccc2)COC(c2ccc(OCCCO)cc2)=N1` , name the class its composite z-score places it in.
c3

Given `O=C1O[C@H](c2ccccc2)[C@H](c2ccccc2)N2[C@H]1[C@@H](C(=O)N1CCN(c3ncccn3)CC1)[C@]1(C(=O)Nc3ccccc31)[C@H]2c1ccc(O)cc1` , name the class its composite z-score places it in.
c1

Given `CCCCC(=C=CC[C@@H](O)c1ccc(OCCO)cc1)C[C@@H](O)c1ccccn1` , name the class its composite z-score places it in.
c2

Given `[N-]=[N+]=NCc1ccccc1C[C@@]1(C(=O)O)N=C(c2ccc(OCCCO)cc2)O[C@@H]1c1ccccc1CN=[N+]=[N-]` , name the class its composite z-score places it in.
c2

Given `COCCOC(=O)N1C(=O)[C@@]2(c3cc(C#CCC(C(=O)OC)C(=O)OC)ccc31)[C@H](C(=O)N1CCc3cc(OC)c(OC)cc3C1)[C@H]1C(=O)O[C@H](c3ccccc3)[C@H](c3ccccc3)N1[C@@H]2c1ccc(O)cc1` , name the class its composite z-score places it in.
c2

Given `COc1ccc(CCNC(=O)[C@@H]2c3ccccc3C(=O)N(CC34CC5CC(CC(C5)C3)C4)[C@H]2c2ccc(CO)cc2)cc1` , name the class its composite z-score places it in.
c1

Given `O=C1c2ccccc2[C@@]2(Cc3ccccc3N(Cc3ccccc3)C2=O)[C@H](c2ccc(CO)cc2)N1Cc1ccccc1` , name the class its composite z-score places it in.
c1

Given `CN(C)C(=O)[C@]1(Cc2ccccc2CN=[N+]=[N-])N=C(c2ccc(OCCCO)cc2)O[C@@H]1c1ccccc1N=[N+]=[N-]` , name the class its composite z-score places it in.
c2

Given `[N-]=[N+]=Nc1ccccc1[C@@H]1OC(c2ccc(OCCCO)cc2)=N[C@]1(Cc1ccccc1)C(N)=O` , name the class its composite z-score places it in.
c2
